experiment: Multi-compound pharmacokinetics of ZJTSD in rat serum, semi-quantitative UPLC-Q/TOF-MS (peak area ratio versus time, non-compartmental); settings: male, Sprague-Dawley, rat, serum (hepatic portal vein blood), po, 1 mL/100 g body weight
quantity: Tmax (h)

>>> measvalue("Cc1cc(=O)c2c(C)cc(O)cc2o1 [P1, 2,5-Dimethyl-7-hydroxychromone]")
0.67
>>> measvalue("O=C(O)/C=C/c1ccccc1")
1.58
>>> measvalue("CC(=O)Cc1cc(O)cc2oc(C)cc(=O)c12 [P5, 2-Methyl-5-acetonyl-7-hydroxychromone]")
0.67
>>> measvalue("O=C(O)C=Cc1ccc(O)cc1")
1.58
>>> measvalue("COc1cc(C)c2c(=O)cc(C)oc2c1")
4.75
>>> measvalue("COc1c(O)ccc2c1C(=O)c1ccccc1C2=O [P14, 2-Hydroxy-1-methoxyanthraquinone]")
0.67
>>> measvalue("CCCCCCCCCCCCCCCCOC[C@@H](O)COP(=O)([O-])OCC[N+](C)(C)C")
0.58
>>> measvalue("Cc1cc2c(cc1O)C(=O)c1ccccc1C2=O [P11, 2-Methyl-3-hydroxyanthraquinone]")
0.67
>>> measvalue("COc1cc(-c2coc3cc(O)ccc3c2=O)ccc1O [P10, 7,4'-Dihydroxy-3'-methoxyisoflavone]")
2.08
>>> measvalue("COc1c(-c2ccccc2)oc2cc(O)cc(O)c2c1=O [P3, 3-Methoxy-5,7-dihydroxyflavone]")
1.83
>>> measvalue("O=C1c2ccccc2C(=O)c2cc(CO)c(O)cc21 [P15, 2-Hydroxy-3-hydroxymethylanthraquinone]")
1.67
